Test system: Staphylococcus aureus
Test: Antibacterial activity against Staphylococcus aureus assessed as inhibition of bacterial growth
Type: functional
Below, each of the compounds is paired with its reported MIC value.
measured.metric: MIC (µg/mL)

In [3]: df
Out[3]:
                                item_smiles  target_or_test_system  recorded_measurement
0  Cc1cc(=O)oc2cc(/N=C3/S/C(=C\c4ccco4)C(=O)N3CCO)ccc12  Staphylococcus aureus                   128
1  Cc1cc(=O)oc2cc(/N=C3/S/C(=C\c4ccc(O)c(Cl)c4)C(=O)N3CCO)ccc12  Staphylococcus aureus                    32
2  Cc1cc(=O)oc2cc(/N=C3/S/C(=C\c4c[nH]c5cc(Cl)ccc45)C(=O)N3CCO)ccc12  Staphylococcus aureus                    16
3  Cc1cc(=O)oc2cc(/N=C3/S/C(=C\c4ccc([N+](=O)[O-])cc4)C(=O)N3CCO)ccc12  Staphylococcus aureus                    64
4  Cc1cc(=O)oc2cc(/N=C3/S/C(=C\C4CCCCC4)C(=O)N3CCO)ccc12  Staphylococcus aureus                   256
5  Cc1cc(=O)oc2cc(/N=C3/S/C(=C\c4ccc(Cl)cc4)C(=O)N3CCO)ccc12  Staphylococcus aureus                   128
6  Cc1cc(=O)oc2cc(/N=C3/S/C(=C\c4cccs4)C(=O)N3CCO)ccc12  Staphylococcus aureus                     4
7  Cc1cc(=O)oc2cc(/N=C3/S/C(=C\c4cccc(Cl)c4)C(=O)N3CCO)ccc12  Staphylococcus aureus                    32
8  Cc1cc(=O)oc2cc(/N=C3/S/C(=C\c4ccc(F)cc4F)C(=O)N3CCO)ccc12  Staphylococcus aureus                    32

====

Tested on: Acinetobacter baumannii
Experiment: Antibacterial activity against Acinetobacter baumannii assessed as inhibition of bacterial growth
Format: functional
MIC strictly under 60 µg/mL means satisfied; at 60 µg/mL or over means not satisfied.

                                item_smiles    class_label
0  Cc1cc(=O)oc2cc(/N=C3/S/C(=C\c4ccc(O)c(Cl)c4)C(=O)N3CCO)ccc12      satisfied
1  Cc1cc(=O)oc2cc(/N=C3/S/C(=C\c4ccc(C(F)(F)F)cc4)C(=O)N3CCO)ccc12      satisfied
2  Cc1cc(=O)oc2cc(/N=C3/S/C(=C\c4csc5ccccc45)C(=O)N3CCO)ccc12      satisfied
3  C=CCn1cc(/C=C2\S/C(=N/c3ccc4c(C)cc(=O)oc4c3)N(CCO)C2=O)c2ccccc21  not satisfied
4      Cc1cc(=O)oc2cc(/N=C3\NC(=O)CS3)ccc12  not satisfied
5  Cc1cc(=O)oc2cc(/N=C3/S/C(=C\c4nccs4)C(=O)N3CCO)ccc12      satisfied
6  Cc1cc(=O)oc2cc(/N=C3/S/C(=C\c4ccc(F)cc4F)C(=O)N3CCO)ccc12  not satisfied
7  Cc1ccc(/C=C2\S/C(=N/c3ccc4c(C)cc(=O)oc4c3)N(CCO)C2=O)cc1      satisfied
8  CCCCc1nc(Cl)c(/C=C2\S/C(=N/c3ccc4c(C)cc(=O)oc4c3)N(CCO)C2=O)[nH]1  not satisfied

====

Test system: Staphylococcus aureus
Test: Antibacterial activity against Staphylococcus aureus assessed as inhibition of bacterial growth
Format: functional
Below, each of the compounds is paired with its reported log10 MIC value.
measured.metric: log10 MIC (log10 of the value in µg/mL)

>>> df
                                 item_smiles  target_or_test_system  measured_metric  recorded_measurement
 0  COc1ccc(/C=C2\S/C(=N/c3ccc4c(C)cc(=O)oc4c3)N(CCO)C2=O)cc1  Staphylococcus aureus        log10 MIC                  1.51
 1   Cc1cc(=O)oc2cc(/N=C3/SCC(=O)N3CCO)ccc12  Staphylococcus aureus        log10 MIC                  2.11
 2  Cc1cc(=O)oc2cc(/N=C3/S/C(=C\c4nccs4)C(=O)N3CCO)ccc12  Staphylococcus aureus        log10 MIC                  1.20
 3      Cc1cc(=O)oc2cc(/N=C3\NC(=O)CS3)ccc12  Staphylococcus aureus        log10 MIC                  1.51
 4  Cc1cc(=O)oc2cc(/N=C3/S/C(=C\c4ccc[nH]4)C(=O)N3CCO)ccc12  Staphylococcus aureus        log10 MIC                  1.81
 5  Cc1ccc(/C=C2\S/C(=N/c3ccc4c(C)cc(=O)oc4c3)N(CCO)C2=O)cc1  Staphylococcus aureus        log10 MIC                  1.81
 6  Cc1ccc(/C=C2\S/C(=N/c3ccc4c(C)cc(=O)oc4c3)N(CCO)C2=O)o1  Staphylococcus aureus        log10 MIC                  2.11
 7  CCn1cc(C(=O)O)c(=O)c2cc(F)c(N3CCNCC3)cc21  Staphylococcus aureus        log10 MIC                  0.30
 8  Cc1cc(=O)oc2cc(/N=C3/S/C(=C\c4ncc[nH]4)C(=O)N3CCO)ccc12  Staphylococcus aureus        log10 MIC                  0.90
 9  Cc1cc(=O)oc2cc(/N=C3/S/C(=C\c4ccccc4)C(=O)N3CCO)ccc12  Staphylococcus aureus        log10 MIC                  1.81
10  C=CCn1cc(/C=C2\S/C(=N/c3ccc4c(C)cc(=O)oc4c3)N(CCO)C2=O)c2ccccc21  Staphylococcus aureus        log10 MIC                  2.11
11  Cc1cc(=O)oc2cc(/N=C3/S/C(=C\c4ccc(C(F)(F)F)cc4)C(=O)N3CCO)ccc12  Staphylococcus aureus        log10 MIC                  2.11
12  Cc1ccc(/C=C2\S/C(=N/c3ccc4c(C)cc(=O)oc4c3)N(CCO)C2=O)c(C)c1  Staphylococcus aureus        log10 MIC                  1.81

====

Below, each of the compounds is paired with its reported MIC value.
Test system: Staphylococcus aureus
Assay: Antibacterial activity against Staphylococcus aureus assessed as inhibition of bacterial growth
Format: functional
measured.metric: MIC (µg/mL)

>>> print(df.to_string())
                                item_smiles  target_or_test_system  recorded_measurement
0  Cc1cc(=O)oc2cc(/N=C3/S/C(=C\c4ccc(F)cc4)C(=O)N3CCO)ccc12  Staphylococcus aureus                    64
1  CCCCc1nc(Cl)c(/C=C2\S/C(=N/c3ccc4c(C)cc(=O)oc4c3)N(CCO)C2=O)[nH]1  Staphylococcus aureus                     8
2  CCn1cc(/C=C2\S/C(=N/c3ccc4c(C)cc(=O)oc4c3)N(CCO)C2=O)c2ccccc21  Staphylococcus aureus                   128
3  Cc1cc(=O)oc2cc(/N=C3/S/C(=C\c4ccc(O)c(Br)c4)C(=O)N3CCO)ccc12  Staphylococcus aureus                    16
4  Cc1cc(=O)oc2cc(/N=C3/S/C(=C\c4ccccc4F)C(=O)N3CCO)ccc12  Staphylococcus aureus                     1
5  Cc1cc(=O)oc2cc(/N=C3/S/C(=C\c4ccc(Cl)cc4Cl)C(=O)N3CCO)ccc12  Staphylococcus aureus                   256
6  Cc1cc(=O)oc2cc(/N=C3/S/C(=C\c4c[nH]c5ccccc45)C(=O)N3CCO)ccc12  Staphylococcus aureus                     2
7  Cc1cc(=O)oc2cc(/N=C3/S/C(=C\c4ccc(C#N)cc4)C(=O)N3CCO)ccc12  Staphylococcus aureus                     1
8  Cc1cc(=O)oc2cc(/N=C3/S/C(=C\c4csc5ccccc45)C(=O)N3CCO)ccc12  Staphylococcus aureus                   128

====

Test system: Acinetobacter baumannii
Assay: Antibacterial activity against Acinetobacter baumannii assessed as inhibition of bacterial growth
Type: functional
Below, each of the compounds is paired with its reported MIC value.
measured.metric: MIC

>>> df
                                item_smiles  recorded_measurement
0  Cc1ccc(/C=C2\S/C(=N/c3ccc4c(C)cc(=O)oc4c3)N(CCO)C2=O)c(C)c1                1 mg/L
1   Cc1cc(=O)oc2cc(/N=C3/SCC(=O)N3CCO)ccc12              0.5 mg/L
2  CCn1cc(/C=C2\S/C(=N/c3ccc4c(C)cc(=O)oc4c3)N(CCO)C2=O)c2ccccc21               64 mg/L
